experiment: Effects of 7-day Ointment Rubbing on Organ Weights; format: in vivo, male Sprague-Dawley rats; conditions: Table 7; 7-day rubbing, 100 mg ointment once daily
METRIC_NAME: Thymus weight, per cent of change vs control animals (per cent)
Report the figure in per cent without appending any unit label.

Task: Bench note: what Thymus weight, per cent of change vs control animals did C[C@@H]1C[C@H]2[C@@H]3CCC4=CC(=O)C=C[C@]4(C)[C@@]3(F)[C@@H](O)C[C@]2(C)[C@@]1(O)C(=O)CO[C@H]1O[C@H](CO)[C@H](O)[C@H](O)[C@H]1O show?
Result: -82.2

Task: Bench note: what Thymus weight, per cent of change vs control animals did C[C@@H]1C[C@H]2[C@@H]3CCC4=CC(=O)C=C[C@]4(C)[C@@]3(F)[C@@H](O)C[C@]2(C)[C@@]1(O)C(=O)CO[C@H]1O[C@H](CO)[C@@H](O)[C@H](O)[C@@H]1O show?
Result: -32.6

Task: Bench note: what Thymus weight, per cent of change vs control animals did C[C@@H]1C[C@H]2[C@@H]3CCC4=CC(=O)C=C[C@]4(C)[C@@]3(F)[C@@H](O)C[C@]2(C)[C@@]1(O)C(=O)CO[C@@H]1O[C@H](CO)[C@H](O)[C@H](O)[C@H]1O show?
Result: -86.0

Task: Bench note: what Thymus weight, per cent of change vs control animals did C[C@@H]1C[C@H]2[C@@H]3CCC4=CC(=O)C=C[C@]4(C)[C@@]3(F)[C@@H](O)C[C@]2(C)[C@@]1(O)C(=O)CO[C@@H]1O[C@H](CO)[C@@H](O)[C@H](O)[C@H]1O show?
Result: -85.7

Origin of the recorded values: patent US5945404A
